readoutName: melting point

// known answers, use as guide
CCOC(=O)C1(C)C(=O)Nc2cc3[nH]c(-c4ccccc4)nc3cc21 (configuration not stated): 178 to 182 °C
O=C1CCCCCCC1F (configuration not stated): 48.1 to 49.8 °C
CNC(=O)c1c(Cl)ccc(Cl)c1OC: 172 to 175 °C
NC(=O)N(O)CCOc1ccc2c(c1)CCN(CCCc1ccc(F)cc1)C2=O: 138 to 140 °C
O=c1c2c(O)c(O)ccc2c2cc(O)c(O)cc2n1Cc1ccc(Cl)c(Cl)c1: 246 °C
COC(=O)C1CC(=O)N(Cc2ccccc2)C1 (configuration not stated): 63 to 65 °C
COC(=O)CCC(=O)c1ccc2c(c1)C(C)NC(=O)N2 (configuration not stated): 142 to 150 °C
O=[N+]([O-])c1ccccc1COc1ccc2ncc3c(c2c1)CCCC3: 153 to 154 °C

Tell me the measured melting point of CCOC(=O)c1cnc2nn(C)cc2c1NC(C)CC (configuration not stated) , please.
132 to 134 °C

Tell me the measured melting point of `O=C(CCN1CCN(c2cccc3[nH]ccc23)CC1)c1csc2ccc(F)cc12` , please.
76 to 78 °C

Tell me the measured melting point of `Nc1ccc2nc(N)sc2c1` , please.
202 to 203 °C
